Target: T1, Recombinant rat MASP1 enzyme (fragment corresponding to amino acids 302-704, C-terminal His Tag) (rat, UniProt Q8CHN8 302-704)
T1 sequence: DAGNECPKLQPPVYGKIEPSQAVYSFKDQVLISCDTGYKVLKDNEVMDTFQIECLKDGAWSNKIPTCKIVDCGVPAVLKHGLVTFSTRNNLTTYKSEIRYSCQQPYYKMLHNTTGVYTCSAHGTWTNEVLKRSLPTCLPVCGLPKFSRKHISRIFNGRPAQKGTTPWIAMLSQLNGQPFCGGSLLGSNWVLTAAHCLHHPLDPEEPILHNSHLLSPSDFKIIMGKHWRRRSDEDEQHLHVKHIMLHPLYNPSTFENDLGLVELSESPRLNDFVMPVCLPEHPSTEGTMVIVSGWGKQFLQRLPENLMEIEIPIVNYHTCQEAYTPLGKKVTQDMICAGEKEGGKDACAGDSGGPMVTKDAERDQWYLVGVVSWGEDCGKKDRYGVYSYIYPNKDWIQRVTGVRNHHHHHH
Assay: cell-based or functional assay
Bridge positions count the residues as written; N and C are the ends. Ends that are not written are not given here.
observable: rat MASP1 IC50 (nM)
Give just the number in nM; leave the unit off.

Look up rat MASP1 IC50: AICSRSLPPICIPD-NH2 (disulfide 3-11; also: HCl salt) [AIC+SRSLPPIC+IPD-NH2 (HCl Salt)]
210
